- measurement.protocol: Selectivity index, ratio of IC50 for cytotoxicity against human WI-38 cells to IC50 for cytotoxicity against human NCI-H460 cells
- Format: toxicity, cell-based
- condition.set: WI-38 cells versus NCI-H460 cells, read-out: Ratio IC50
endpoint.name: selectivity ratio
Simply state the number, no unit and no words.

Worked examples, 3 molecules total:
[[record]]
molecule = "O=C(c1ccccc1)[C@H]1[C@H](c2cn(-c3ccccc3)nc2-c2ccccc2)[C@@H]2CC3CCCCC3N2[C@]12C(=O)Nc1ccc(Cl)cc12 (some centres undefined)"
endpoint_name = "selectivity ratio"
test_value = 0.88

[[record]]
molecule = "COc1ccc2c(c1)[C@@]1(C(=O)N2)[C@@H](C(=O)c2ccc([N+](=O)[O-])cc2)[C@H](c2cn(-c3ccccc3)nc2-c2ccccc2)CN1C"
endpoint_name = "selectivity ratio"
test_value = 1.3

[[record]]
molecule = "O=C(c1ccccc1[N+](=O)[O-])[C@H]1[C@H](c2cn(-c3ccccc3)nc2-c2ccccc2)[C@@H]2CC3CCCCC3N2[C@]12C(=O)Nc1ccccc12 (some centres undefined)"
endpoint_name = "selectivity ratio"
test_value = 0.67


What the record says about O=C(c1ccc([N+](=O)[O-])cc1)[C@H]1[C@H](c2cn(-c3ccccc3)nc2-c2ccccc2)[C@@H]2CC3CCCCC3N2[C@]12C(=O)Nc1ccccc12 (some centres undefined) : selectivity ratio is 0.78

What the record says about O=C(c1ccc(Br)cc1)[C@H]1[C@H](c2cn(-c3ccccc3)nc2-c2ccccc2)[C@@H]2CC3CCCCC3N2[C@]12C(=O)Nc1cc(Cl)ccc12 (some centres undefined) : selectivity ratio is 0.73

What the record says about O=C(c1ccccc1[N+](=O)[O-])[C@H]1[C@H](c2cn(-c3ccccc3)nc2-c2ccccc2)[C@@H]2CC3CCCCC3N2[C@]12C(=O)Nc1cc(Cl)ccc12 (some centres undefined) : selectivity ratio is 0.48

What the record says about CN1C[C@@H](c2cn(-c3ccccc3)nc2-c2ccccc2)[C@H](C(=O)c2ccccc2)[C@@]12C(=O)Nc1ccccc12 : selectivity ratio is 1.71

What the record says about COc1ccc2c(c1)[C@@]1(C(=O)N2)[C@@H](C(=O)c2ccc([N+](=O)[O-])cc2)[C@H](c2cn(-c3ccccc3)nc2-c2ccccc2)[C@@H]2CC3CCCCC3N21 (some centres undefined) : selectivity ratio is 0.86

What the record says about O=C(c1ccccc1)[C@H]1[C@H](c2cn(-c3ccccc3)nc2-c2ccccc2)[C@@H]2CC3CCCCC3N2[C@]12C(=O)Nc1cc(Cl)ccc12 (some centres undefined) : selectivity ratio is 0.53

What the record says about CN1C[C@@H](c2cn(-c3ccccc3)nc2-c2ccccc2)[C@H](C(=O)c2ccc([N+](=O)[O-])cc2)[C@@]12C(=O)Nc1ccccc12 : selectivity ratio is 0.99

What the record says about O=C(c1ccccc1)[C@H]1[C@H](c2cn(-c3ccccc3)nc2-c2ccccc2)[C@@H]2CC3CCCCC3N2[C@]12C(=O)Nc1ccccc12 (some centres undefined) : selectivity ratio is 1.53

What the record says about CN1C[C@@H](c2cn(-c3ccccc3)nc2-c2ccccc2)[C@H](C(=O)c2ccc([N+](=O)[O-])cc2)[C@@]12C(=O)Nc1ccc(Cl)cc12 : selectivity ratio is 0.46

What the record says about CN1C[C@@H](c2cn(-c3ccccc3)nc2-c2ccccc2)[C@H](C(=O)c2ccccc2)[C@@]12C(=O)Nc1ccc(Cl)cc12 : selectivity ratio is 1.3

What the record says about O=C(c1ccc(Br)cc1)[C@H]1[C@H](c2cn(-c3ccccc3)nc2-c2ccccc2)[C@@H]2CC3CCCCC3N2[C@]12C(=O)Nc1ccccc12 (some centres undefined) : selectivity ratio is 0.64
